test system: ADR5000 cell line; experiment: Cytotoxicity against multidrug resistant human CEM/ADR5000 cells overexpressing p-glycoprotein assessed as inhibition of cell growth incubated for 72 hrs by resazurin dye based assay; format: functional; settings: ADR5000, 72 h
Parameter: IC50 (µM)
Report as a plain number; the unit µM is understood.

**Query** Give me measured IC50, please, for this molecule: COc1cc2occ(-c3ccc(C=O)cc3)c(=O)c2c(OC)c1CC=C(C)C
**Result** 20

**Query** Check the records and state IC50 for COc1cc2occ(-c3ccc(C#N)cc3)c(=O)c2c(OC)c1CC=C(C)C
**Result** 20

----------
For each of the compounds below, state its MIC.
tested on: Pseudomonas aeruginosa; experiment: Antibacterial activity against Pseudomonas aeruginosa PA01 assessed as inhibition of bacterial growth incubated for 18 to 24 hrs by microdilution method; assay type: functional; conditions: time 18-24 hrs
Write the number in µg/mL without appending the unit.

**Query** Report its MIC with Pseudomonas aeruginosa as the test system: COc1cc2occ(-c3ccc4c(c3)OCO4)c(=O)c2c(OC)c1CC=C(C)C
**Result** 64

**Query** Look up and report measured MIC (Pseudomonas aeruginosa) for the following compound: COc1cc2occ(-c3ccc4[nH]ccc4c3)c(=O)c2c(OC)c1CC=C(C)C
**Result** 130

**Query** Provide MIC, tested on Pseudomonas aeruginosa, for COc1cc2occ(-c3ccc(C#N)cc3)c(=O)c2c(OC)c1CC=C(C)C .
**Result** 130

**Query** Please report MIC with Pseudomonas aeruginosa for item COc1cc2occ(-c3ccc(C=O)cc3)c(=O)c2c(OC)c1CC=C(C)C .
**Result** 64

**Query** Provide MIC, system Pseudomonas aeruginosa, entry COc1cc2occ(-c3ccc(O)cc3)c(=O)c2c(OC)c1CC=C(C)C
**Result** 130

----------
tested on: Providencia stuartii; test: Antibacterial activity against Providencia stuartii NEA16 assessed as inhibition of bacterial growth incubated for 18 to 24 hrs by microdilution method; assay type: functional; settings: time 18-24 hrs
# label = 1.0 if MIC < 60 µg/mL else 0.0

**Query** Is it true that MIC reported for COc1cc2occ(-c3ccc4c(c3)OCO4)c(=O)c2c(OC)c1CC=C(C)C is less than 60 µg/mL?
**Result** 0.0

**Query** Quick check: MIC of COc1cc2occ(-c3ccc(C#N)cc3)c(=O)c2c(OC)c1CC=C(C)C under 60 µg/mL?
**Result** 1.0

**Query** hey, is MIC for COc1cc2occ(-c3ccc4[nH]ccc4c3)c(=O)c2c(OC)c1CC=C(C)C lower than 60 µg/mL or not?
**Result** 0.0

**Query** Consider COc1cc2occ(-c3ccc(C=O)cc3)c(=O)c2c(OC)c1CC=C(C)C . Does its MIC lie strictly below 60 µg/mL?
**Result** 0.0

**Query** Determine if O=C(O)c1cn(C2CC2)c2cc(N3CCNCC3)c(F)cc2c1=O [CIPROFLOXACIN] shows MIC strictly lower than 60 µg/mL.
**Result** 1.0

**Query** Is MIC strictly under 60 µg/mL for the entry COc1cc2occ(-c3ccc(O)cc3)c(=O)c2c(OC)c1CC=C(C)C ?
**Result** 1.0

**Query** Regarding COc1ccc(-c2coc3cc(OC)c(CC=C(C)C)c(OC)c3c2=O)cc1 , kindly confirm whether its MIC is beneath 60 µg/mL.
**Result** 0.0

----------
Field: MIC. Provide a value for each of the molecules that follow.
test system: Pseudomonas aeruginosa; experiment: Antibacterial activity against Pseudomonas aeruginosa PA124 assessed as inhibition of bacterial growth incubated for 18 to 24 hrs in the presence of PAbetaN by microdilution method; type: functional; conditions: time 18-24 hrs
Hi! Could you send only the number? It should be in µg/mL, unit omitted.

**Query** Find the measured MIC of COc1cc2occ(-c3ccc(C=O)cc3)c(=O)c2c(OC)c1CC=C(C)C with Pseudomonas aeruginosa as test system.
**Result** 8

**Query** Give MIC for this entry on Pseudomonas aeruginosa: COc1cc2occ(-c3ccc(O)cc3)c(=O)c2c(OC)c1CC=C(C)C
**Result** 4

**Query** Provide MIC, system Pseudomonas aeruginosa, entry COc1cc2occ(-c3ccc4c(c3)OCO4)c(=O)c2c(OC)c1CC=C(C)C
**Result** 4

**Query** Given COc1ccc(-c2coc3cc(OC)c(CC=C(C)C)c(OC)c3c2=O)cc1 , report its MIC on Pseudomonas aeruginosa.
**Result** 8

**Query** Answer briefly: MIC recorded on Pseudomonas aeruginosa for COc1cc2occ(-c3ccc4[nH]ccc4c3)c(=O)c2c(OC)c1CC=C(C)C
**Result** 2

**Query** Enter measured MIC, system Pseudomonas aeruginosa, for the molecule shown: COc1cc2occ(-c3ccc(C#N)cc3)c(=O)c2c(OC)c1CC=C(C)C
**Result** 32

**Query** Given O=C(O)c1cn(C2CC2)c2cc(N3CCNCC3)c(F)cc2c1=O , report its MIC on Pseudomonas aeruginosa.
**Result** 1

----------
tested on: Providencia stuartii; assay: Antibacterial activity against Providencia stuartii NEA16 assessed as inhibition of bacterial growth incubated for 18 to 24 hrs in the presence of PAbN by microdilution method; format: functional; conditions: time 18-24 hrs
Field: MIC. Provide a value for each of the compounds that follow.
Form entry: value (µg/mL) — number only.

**Query** Return MIC (reported value) for this compound: COc1cc2occ(-c3ccc(O)cc3)c(=O)c2c(OC)c1CC=C(C)C
**Result** 1

**Query** Identify MIC associated with the compound COc1cc2occ(-c3ccc4c(c3)OCO4)c(=O)c2c(OC)c1CC=C(C)C
**Result** 8

**Query** Provide only the value of recorded MIC for COc1cc2occ(-c3ccc4[nH]ccc4c3)c(=O)c2c(OC)c1CC=C(C)C
**Result** 8

**Query** Identify the reported MIC for the following entry. COc1cc2occ(-c3ccc(C#N)cc3)c(=O)c2c(OC)c1CC=C(C)C
**Result** 1

**Query** Check the records and state MIC for O=C(O)c1cn(C2CC2)c2cc(N3CCNCC3)c(F)cc2c1=O
**Result** 0.25

**Query** For COc1cc2occ(-c3ccc(C=O)cc3)c(=O)c2c(OC)c1CC=C(C)C , write its MIC.
**Result** 2

**Query** Kindly indicate its recorded MIC. Item: COc1ccc(-c2coc3cc(OC)c(CC=C(C)C)c(OC)c3c2=O)cc1
**Result** 4
